Molecular target: PI3K delta (Homo sapiens (Human))
Experiment: Enzymatic PI3K delta isoform inhibition (lipid kinase activity, Kinase-Glo luminescence)
Details: Enzymatic assay
observed property: pIC50
Numbers only, as −log10 of the molar value.

Record excerpt, results attached:
COCC(=O)N1CC[C@H](Oc2ccc3c(c2)N(c2cnc(OC)c(OC)c2)CCO3)C1 [Example B44] :: 7.66
COc1cc(N2CCOc3ccc(O[C@H]4CCN(C(=O)C5CCS(=O)(=O)CC5)C4)cc32)cnc1OC [Example B47] :: 7.97
COc1cc(N2CCOc3ccc(O[C@H]4CCN(C(=O)C5CCOCC5)C4)cc32)cnc1OC [Example B38] :: 8.52
Cc1cc(N2CCOc3ccc(O[C@H]4CCN(c5ccccn5)C4)cc32)cnc1S(C)(=O)=O [M] :: 8.22
COc1ncc(N2CCOc3ccc(O[C@H]4CCN(C(=O)C5CCS(=O)(=O)C5)C4)cc32)cc1C (stereo partly drawn) [Example B13] :: 7.21
COc1ncc(N2CCOc3ccc(O[C@H]4CCN(C(=O)c5cn(C)cn5)C4)cc32)cc1C [Example B89] :: 8.05
COc1ncc(N2CCOc3ccc(O[C@H]4CCN(C(=O)c5ccc(=O)[nH]c5)C4)cc32)cc1C#N [Example D20] :: 8.15

pIC50 reading for COc1ncc(N2CCOc3ccc(O[C@H]4CCN(C(=O)C5CCS(=O)(=O)CC5)C4)cc32)cc1Cl [Example B12] : 7.96

====

Answer each item with its documented IC50.
Target: PI3K delta (Homo sapiens (Human), UniProt O00329)
Sequence (O00329 other isoform, or with tags, fused parts or gaps linker GGGGGG): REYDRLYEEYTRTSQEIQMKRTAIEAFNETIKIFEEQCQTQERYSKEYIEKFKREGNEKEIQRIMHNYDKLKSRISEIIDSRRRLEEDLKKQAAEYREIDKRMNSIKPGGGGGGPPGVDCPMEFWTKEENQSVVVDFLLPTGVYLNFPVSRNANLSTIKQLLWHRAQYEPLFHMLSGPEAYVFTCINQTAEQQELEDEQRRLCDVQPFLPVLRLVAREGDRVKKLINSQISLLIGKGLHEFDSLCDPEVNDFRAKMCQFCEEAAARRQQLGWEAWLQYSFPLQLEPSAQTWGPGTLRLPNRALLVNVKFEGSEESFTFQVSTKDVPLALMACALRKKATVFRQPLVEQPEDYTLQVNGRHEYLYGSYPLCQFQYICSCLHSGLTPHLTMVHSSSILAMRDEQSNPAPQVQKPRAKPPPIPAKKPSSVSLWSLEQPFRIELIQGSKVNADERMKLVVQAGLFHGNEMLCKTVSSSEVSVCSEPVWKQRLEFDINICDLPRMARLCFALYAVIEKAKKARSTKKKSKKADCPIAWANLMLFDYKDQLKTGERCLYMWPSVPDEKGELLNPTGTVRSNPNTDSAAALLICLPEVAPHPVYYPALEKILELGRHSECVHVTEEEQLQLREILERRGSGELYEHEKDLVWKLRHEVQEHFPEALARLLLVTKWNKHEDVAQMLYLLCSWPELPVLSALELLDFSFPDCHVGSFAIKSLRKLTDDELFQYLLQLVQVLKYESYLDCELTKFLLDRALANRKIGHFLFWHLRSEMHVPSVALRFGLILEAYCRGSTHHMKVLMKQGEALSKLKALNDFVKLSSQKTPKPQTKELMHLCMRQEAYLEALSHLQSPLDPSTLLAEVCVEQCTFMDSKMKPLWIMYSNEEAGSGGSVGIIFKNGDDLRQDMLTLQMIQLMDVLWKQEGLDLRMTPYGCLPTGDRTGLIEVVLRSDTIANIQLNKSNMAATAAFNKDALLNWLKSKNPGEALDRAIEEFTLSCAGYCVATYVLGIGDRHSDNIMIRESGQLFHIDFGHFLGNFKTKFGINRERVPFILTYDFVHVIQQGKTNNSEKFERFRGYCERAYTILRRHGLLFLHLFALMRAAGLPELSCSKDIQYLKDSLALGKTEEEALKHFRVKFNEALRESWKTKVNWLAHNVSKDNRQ
Test: Enzymatic PI3K delta isoform inhibition (lipid kinase activity, Kinase-Glo luminescence)
Settings: Enzymatic assay
Answers are plain numbers, in nM.

Cc1cc(N2CCOc3ccc(O[C@H]4CCN(C(=O)C5COCCO5)C4)cc32)cnc1S(C)(=O)=O (single isomer, unassigned) [Example H3] :: 8
CCc1cc(N2CCOc3ccc(O[C@H]4CCN(C(=O)C5CCS(=O)(=O)CC5)C4)cc32)cnc1OC [Example B19] :: 33

Now consider the entry below.
IC50 reading for COCC(=O)N1CC[C@H](Oc2ccc3c(c2)N(c2cnc(S(C)(=O)=O)c(C)c2)CCO3)C1 [Example B32] : 36

====

Answer each item with its documented pIC50.
Target: PI3K alpha (Homo sapiens (Human), UniProt P42336)
Sequence (P42336 other isoform, or with tags, fused parts or gaps): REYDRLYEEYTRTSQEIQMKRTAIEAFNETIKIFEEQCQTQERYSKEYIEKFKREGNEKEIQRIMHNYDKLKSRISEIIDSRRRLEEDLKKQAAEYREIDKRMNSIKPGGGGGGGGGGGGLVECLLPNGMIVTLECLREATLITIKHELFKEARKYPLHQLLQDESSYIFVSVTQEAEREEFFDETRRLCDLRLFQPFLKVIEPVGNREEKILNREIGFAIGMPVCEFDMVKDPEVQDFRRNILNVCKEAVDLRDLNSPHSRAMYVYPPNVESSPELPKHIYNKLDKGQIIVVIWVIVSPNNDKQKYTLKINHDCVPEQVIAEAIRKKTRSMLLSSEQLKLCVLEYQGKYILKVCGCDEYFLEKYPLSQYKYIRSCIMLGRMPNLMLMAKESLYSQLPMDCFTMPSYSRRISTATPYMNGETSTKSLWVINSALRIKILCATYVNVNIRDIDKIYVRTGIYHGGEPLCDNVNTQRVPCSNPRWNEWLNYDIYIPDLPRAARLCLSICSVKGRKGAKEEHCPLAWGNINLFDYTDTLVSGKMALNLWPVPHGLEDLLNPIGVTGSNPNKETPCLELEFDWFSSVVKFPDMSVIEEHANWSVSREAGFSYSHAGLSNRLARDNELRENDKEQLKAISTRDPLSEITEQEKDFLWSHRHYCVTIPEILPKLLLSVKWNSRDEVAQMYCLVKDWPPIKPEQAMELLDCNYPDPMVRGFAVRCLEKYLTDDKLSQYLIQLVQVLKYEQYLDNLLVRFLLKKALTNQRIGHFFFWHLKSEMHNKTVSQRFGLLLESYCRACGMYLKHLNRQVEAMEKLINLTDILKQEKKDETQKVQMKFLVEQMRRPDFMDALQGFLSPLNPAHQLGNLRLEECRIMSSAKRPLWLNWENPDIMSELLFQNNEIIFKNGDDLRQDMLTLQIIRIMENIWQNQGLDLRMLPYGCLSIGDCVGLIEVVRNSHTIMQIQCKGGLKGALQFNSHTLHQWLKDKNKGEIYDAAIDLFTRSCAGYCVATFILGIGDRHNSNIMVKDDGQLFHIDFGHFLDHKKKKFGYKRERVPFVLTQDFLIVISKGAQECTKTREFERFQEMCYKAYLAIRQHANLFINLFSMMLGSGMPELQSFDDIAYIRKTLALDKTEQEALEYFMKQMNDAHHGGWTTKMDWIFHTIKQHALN
Assay: Enzymatic PI3K alpha isoform inhibition (lipid kinase activity, Kinase-Glo luminescence)
Settings: Enzymatic assay
Give bare numbers, as −log10 of the molar value.

Record excerpt, results attached:
Cc1cc(N2CCOc3ccc(O[C@H]4CCN(c5ccccn5)C4)cc32)cnc1S(C)(=O)=O :: 6.52
CS(=O)(=O)c1ncc(N2CCOc3ccc(O[C@H]4CCN(C(=O)[C@H]5CCOC5)C4)cc32)cc1C(F)F :: 6.40
Cc1cc(N2CCOc3ccc(O[C@H]4CCN(S(=O)(=O)C(C)C)C4)cc32)cnc1S(C)(=O)=O :: 6.45
COc1ncc(N2CCOc3ccc(O[C@H]4CCN(C(=O)CN5CCOCC5)C4)cc32)cc1C#N :: 6.63
COc1ncc(N2CCOc3ccc(O[C@H]4CCN(C(=O)[C@H]5CC[C@@H](O)CC5)C4)cc32)cc1F :: 6.30
COc1ncc(N2c3cc(O[C@H]4CCN(C(=O)C5CCOCC5)C4)ccc3OCC2C)cc1C#N (some centres unmarked) [Example C5] :: 5.26

pIC50 reading for `Cc1cc(N2CCOc3ccc(O[C@H]4CCN(C(=O)C5CCOCC5)C4)c(C)c32)cnc1S(C)(=O)=O` : 5.53

Data origin: patent US9539260B2
